study.system: KCNQ3* (KCNQ3-A315T) (Homo sapiens, UniProt O43525, A315T)
Sequence (O43525 whole entry A315T): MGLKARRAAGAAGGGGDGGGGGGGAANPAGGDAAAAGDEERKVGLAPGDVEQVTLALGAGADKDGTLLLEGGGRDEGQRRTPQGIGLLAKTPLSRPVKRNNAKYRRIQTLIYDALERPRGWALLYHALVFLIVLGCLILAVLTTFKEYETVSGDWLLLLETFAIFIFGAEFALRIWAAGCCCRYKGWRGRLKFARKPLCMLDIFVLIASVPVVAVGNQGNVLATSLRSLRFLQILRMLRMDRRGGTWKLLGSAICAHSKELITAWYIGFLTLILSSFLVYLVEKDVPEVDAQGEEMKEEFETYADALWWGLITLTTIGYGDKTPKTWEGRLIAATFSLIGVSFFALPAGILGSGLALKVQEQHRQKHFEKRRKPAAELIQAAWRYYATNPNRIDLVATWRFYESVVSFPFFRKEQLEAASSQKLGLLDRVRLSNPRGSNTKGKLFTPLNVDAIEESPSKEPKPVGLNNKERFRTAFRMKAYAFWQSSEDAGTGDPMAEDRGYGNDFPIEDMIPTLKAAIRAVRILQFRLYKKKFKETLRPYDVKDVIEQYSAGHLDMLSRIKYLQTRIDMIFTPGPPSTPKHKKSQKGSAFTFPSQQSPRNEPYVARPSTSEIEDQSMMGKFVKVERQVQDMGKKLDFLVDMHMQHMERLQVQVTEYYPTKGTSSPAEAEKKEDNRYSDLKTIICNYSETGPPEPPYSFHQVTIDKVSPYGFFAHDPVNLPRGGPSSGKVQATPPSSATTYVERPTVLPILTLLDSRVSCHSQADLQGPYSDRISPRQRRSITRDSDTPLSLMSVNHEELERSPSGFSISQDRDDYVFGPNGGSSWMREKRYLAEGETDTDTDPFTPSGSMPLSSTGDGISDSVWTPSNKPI
assay.notes: TEVC of KCNQ3* homomers expressed in Xenopus laevis oocytes
Format: cell-based
conditions: 10 µM
readout.label: V0.5 Normalized tail current (mV)
Reply with just the number (in mV).

# example entries with known answers
compound	V0.5 Normalized tail current (mV)
CC(=O)Oc1c(C(C)C)cc2c(c1OC(C)=O)C1(C(=O)O)CCCC(C)(C)C1CC2 (stereo not shown) [Carnosic acid diacetate]	-50.38
CC(C)c1cc2c(c(O)c1O)[C@@]1(C(=O)O)CCCC(C)(C)[C@@H]1CC2 [Carnosic acid, carnosic acid]	-73.28
CC(C)c1cc2c3c(c1O)OC(=O)C31CCCC(C)(C)C1CC2 (stereo not shown) [Carnosic gamma lactone, carnosic acid γ-lactone]	-54.06

What value of measured V0.5 Normalized tail current is listed for COC(=O)[C@]12CCCC(C)(C)[C@@H]1CCc1cc(C(C)C)c(O)c(O)c12 [Methyl carnosate, methyl carnosate] ?
-47.09

----------
study.system: KCNQ5 (Homo sapiens)
assay.notes: TEVC of KCNQ5 homomers expressed in Xenopus laevis oocytes
Format: cell-based
conditions: EC50 EM
From the text: We generated cRNA transcripts encoding human KCNQ1, 2, 3, and 5 (wild-type and mutant) by in vitro transcription using the mMessage mMachine kit (Thermo Fisher Scientific, Waltham, MA, USA) according to manufacturer’s instructions, after vector linearization, from cDNA sub-cloned into expression vectors (pTLNx and pXOOM) incorporating Xenopus laevis β-globin 5’ and 3’ UTRs flanking the coding region to enhance translation and cRNA stability. […]
readout.label: pEC50
Schema: pEC50 number; meaning minus log10 of the concentration expressed in molar units.

pEC50 for CC(C)c1cc2c(c(O)c1O)[C@@]1(C(=O)O)CCCC(C)(C)[C@@H]1CC2 ?
4.36

----------
study.system: KCNQ3*-L198F (Homo sapiens, UniProt O43525, A315T/L198F)
assay.notes: TEVC of mutant KCNQ3*-L198F in oocytes
Assay type: cell-based
conditions: EC50 EM
readout.label: pEC50
Expect pEC50 as a plain number equal to -log10 of the molar concentration.

Recorded pEC50 for CC(C)c1cc2c(c(O)c1O)[C@@]1(C(=O)O)CCCC(C)(C)[C@@H]1CC2 , please?
5.94

----------
study.system: KCNQ3* (KCNQ3-A315T) (Homo sapiens, UniProt O43525, A315T)
assay.notes: TEVC of KCNQ3* homomers expressed in Xenopus laevis oocytes
Type: cell-based
conditions: 100 µM
readout.label: V0.5 non-normalized tail current (mV)
API: value field is a number in mV; no unit string.

COc1cc(C(=O)O)cc(OC)c1O -51.58
O=C(/C=C/c1ccc(O)c(O)c1)O[C@H](Cc1ccc(O)c(O)c1)C(=O)O -50.09
O=C(O)[C@]1(O)C[C@@H](O)[C@@H](O)[C@H](O)C1 -51.87

Alright, here's another compound for you.
Need V0.5 non-normalized tail current, item CC(C)c1cc2c(c(O)c1O)[C@@]1(C(=O)O)CCCC(C)(C)[C@@H]1CC2
-111.1

----------
study.system: KCNQ3/5 (Homo sapiens, UniProt O43525+Q9NR82)
Construct: expressed in transfected cells; host or cells: Xenopus laevis oocytes co-injected with cRNAs
assay.notes: TEVC of KCNQ3/5 heteromers expressed in Xenopus laevis oocytes
Format: cell-based
conditions: EC50 V0.5 Activation
readout.label: EC50 (µM)
Use µM as the unit, but write only the number.

Requested read-out: EC50. Entry: CC(C)c1cc2c(c(O)c1O)[C@@]1(C(=O)O)CCCC(C)(C)[C@@H]1CC2 [Carnosic acid, carnosic acid]
4.53

----------
study.system: KCNQ3* (KCNQ3-A315T) (Homo sapiens, UniProt O43525, A315T)
assay.notes: TEVC of KCNQ3* homomers expressed in Xenopus laevis oocytes
Assay type: cell-based
conditions: EC50 Fold change -60 mV, current increase at −60 mV
readout.label: EC50 (µM)
Please give a number only; it is taken to be in µM.

Would you mind telling me what EC50 value was observed for CC(C)c1cc2c(c(O)c1O)[C@@]1(C(=O)O)CCCC(C)(C)[C@@H]1CC2 [Carnosic acid, carnosic acid] ?
5.43

----------
assay.notes: Solubility limit for testing in bath solution
Type: physicochemical
conditions: oocyte recording bath solution, pH 7.6, aqueous buffer; read-out: solubility (highest testable concentration)
readout.label: solubility

Which solubility value belongs to COc1ccc([C@@H]2CC(=O)c3c(O)cc(O[C@@H]4O[C@H](CO[C@@H]5O[C@@H](C)[C@H](O)[C@@H](O)[C@H]5O)[C@@H](O)[C@H](O)[C@H]4O)cc3O2)cc1O ?
≤ 30 µM

----------
study.system: KCNQ3* (KCNQ3-A315T) (Homo sapiens, UniProt O43525, A315T)
assay.notes: TEVC of KCNQ3* homomers expressed in Xenopus laevis oocytes
Format: cell-based
conditions: 100 µM
readout.label: Slope (mV)
Respond with the bare value in mV.

Please review the following examples before continuing.
compound	Slope, mV
COc1cc(C(=O)O)cc(OC)c1O [Syringic acid]	4.92
COc1c(C(C)C)cc2c(c1OC)C13CCCC(C)(C)C1CC2OC3=O (stereo not shown) [Dimethylcarnosol, dimethyl carnosol]	4.92

What value of Slope has been recorded for this entry: CC(C)c1cc2c(c(O)c1O)[C@@]13CCCC(C)(C)[C@@H]1C[C@@H]2OC3=O [Carnosol]
5.00

Suppose we examine the compound CC(C)c1cc2c(cc1O)C1(C(=O)O)CCCC(C)(C)C1CC2 (stereo not shown) [Pisiferic acid, pisiferic acid] ; what Slope value has been reported?
4.89
